- Method notes: Plasma concentration in mouse at 10 mg/kg, po after 3 hrs
- Assay type: ADME, organism-based
Readout kind: concentration at 3 h (nM)
Provide only the numeric value, understood in nM.

Enquiry: Quick one: concentration at 3 h of "O=C(O)[C@H]1CC[C@H](OC2CCN(c3ccc(-c4nc5cc(C(F)(F)F)ccc5[nH]4)cn3)CC2)CC1" ?
Return: 324

###

- Method notes: Stability in rat hepatocytes assessed as epimerization incubated for 2 hrs by UPLC/HRMS analysis
- Type: ADME, cell-based, Hepatocyte
Readout kind: Stability

compound_string=O=C(O)[C@H]1CC[C@H](OC2CCN(c3ccc(-c4nc5cc(C(F)(F)F)ccc5[nH]4)cn3)CC2)CC1 reported_result=Unstable
compound_string=O=C(O)[C@@H]1[C@@H]2C[C@H](OC3CCN(c4ccc(-c5nc6cc(C(F)(F)F)ccc6[nH]5)cn4)CC3)C[C@@H]21 reported_result=Stable
compound_string=O=C(O)[C@H]1CC[C@@H](OC2CCN(c3ccc(-c4nc5cc(C(F)(F)F)ccc5[nH]4)cn3)CC2)CC1 reported_result=Unstable
compound_string=O=C(O)[C@H]1[C@@H]2C[C@H](OC3CCN(c4ccc(-c5nc6cc(C(F)(F)F)ccc6[nH]5)cn4)CC3)C[C@@H]21 reported_result=Stable

###

- Target desc: Diacylglycerol O-acyltransferase 1 (Mus musculus)
- Sequence (Q9Z2A7 whole entry): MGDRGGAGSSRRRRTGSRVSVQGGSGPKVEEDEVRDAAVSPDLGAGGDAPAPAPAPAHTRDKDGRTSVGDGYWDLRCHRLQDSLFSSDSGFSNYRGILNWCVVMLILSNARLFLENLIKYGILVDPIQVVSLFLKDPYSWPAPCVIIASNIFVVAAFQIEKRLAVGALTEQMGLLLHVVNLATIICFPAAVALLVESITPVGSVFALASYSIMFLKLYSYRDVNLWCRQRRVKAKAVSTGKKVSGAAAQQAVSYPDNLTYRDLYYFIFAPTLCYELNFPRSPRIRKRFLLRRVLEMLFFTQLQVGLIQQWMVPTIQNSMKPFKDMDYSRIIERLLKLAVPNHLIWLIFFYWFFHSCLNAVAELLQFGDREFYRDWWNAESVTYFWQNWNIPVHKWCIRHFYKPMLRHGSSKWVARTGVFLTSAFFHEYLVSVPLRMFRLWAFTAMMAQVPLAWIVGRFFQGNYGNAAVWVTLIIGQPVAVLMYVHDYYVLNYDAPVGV
As shown below, each of these molecules has a reported pIC50 value.
Here pIC50 is given on a logarithmic scale as minus log10 of the concentration in mol/L.

Worked set:
compound_string=O=C(O)[C@@H]1[C@@H]2C[C@H](OC3CCN(c4ccc(-c5nc6cc(C(F)(F)F)ccc6[nH]5)cn4)CC3)C[C@@H]21 reported_result=7.13
compound_string=O=C(O)[C@H]1[C@@H]2C[C@@H](OC3CCN(c4ccc(-c5nc6cc(C(F)(F)F)ccc6[nH]5)cn4)CC3)C[C@@H]21 reported_result=7.66

Now for the molecule whose pIC50 we want.
Enquiry: Test system Diacylglycerol O-acyltransferase 1 (Mus musculus); read-out pIC50; what value for "O=C(O)[C@@H]1[C@@H]2C[C@@H](OC3CCN(c4ccc(-c5nc6cc(C(F)(F)F)ccc6[nH]5)cn4)CC3)C[C@@H]21" ?
Return: 7.32

###

- Method notes: Plasma concentration in mouse at 3 mg/kg, po
- Type: ADME, organism-based
- Recorded conditions: in vivo
Entries and their measured concentration follow.
Just the number in nM, nothing appended.

Reference set (3 entries):
compound_string=O=C(O)[C@H]1[C@@H]2C[C@H](OC3CCN(c4ccc(-c5nc6cc(C(F)(F)F)ccc6[nH]5)cn4)CC3)C[C@@H]21 unit_label=nM reported_result=27
compound_string=O=C(O)[C@@H]1[C@@H]2C[C@@H](OC3CCN(c4ccc(-c5nc6cc(C(F)(F)F)ccc6[nH]5)cn4)CC3)C[C@@H]21 unit_label=nM reported_result=51
compound_string=O=C(O)[C@@H]1[C@@H]2C[C@H](OC3CCN(c4ccc(-c5nc6cc(C(F)(F)F)ccc6[nH]5)cn4)CC3)C[C@@H]21 unit_label=nM reported_result=23

Could you now look at the following molecule, please?
Enquiry: What does the record list as concentration for "O=C(O)[C@H]1[C@@H]2C[C@@H](OC3CCN(c4ccc(-c5nc6cc(C(F)(F)F)ccc6[nH]5)cn4)CC3)C[C@@H]21" ?
Return: 25

###

- Method notes: Stability in human hepatocytes assessed as epimerization incubated for 2 hrs by UPLC/HRMS analysis
- Assay type: ADME, cell-based, Hepatocyte
Readout kind: Stability

compound_string=O=C(O)[C@@H]1[C@@H]2C[C@H](OC3CCN(c4ccc(-c5nc6cc(C(F)(F)F)ccc6[nH]5)cn4)CC3)C[C@@H]21 reported_result=Stable
compound_string=O=C(O)[C@H]1[C@@H]2C[C@H](OC3CCN(c4ccc(-c5nc6cc(C(F)(F)F)ccc6[nH]5)cn4)CC3)C[C@@H]21 reported_result=Stable
compound_string=O=C(O)[C@H]1CC[C@@H](OC2CCN(c3ccc(-c4nc5cc(C(F)(F)F)ccc5[nH]4)cn3)CC2)CC1 reported_result=Unstable
compound_string=O=C(O)[C@H]1CC[C@H](OC2CCN(c3ccc(-c4nc5cc(C(F)(F)F)ccc5[nH]4)cn3)CC2)CC1 reported_result=Unstable

###

- Method notes: Stability in mouse hepatocytes assessed as epimerization incubated for 2 hrs by UPLC/HRMS analysis
- Type: ADME, cell-based, Hepatocyte
Readout kind: Stability

compound_string=O=C(O)[C@@H]1[C@@H]2C[C@H](OC3CCN(c4ccc(-c5nc6cc(C(F)(F)F)ccc6[nH]5)cn4)CC3)C[C@@H]21 reported_result=Stable
compound_string=O=C(O)[C@H]1[C@@H]2C[C@H](OC3CCN(c4ccc(-c5nc6cc(C(F)(F)F)ccc6[nH]5)cn4)CC3)C[C@@H]21 reported_result=Stable
compound_string=O=C(O)[C@H]1CC[C@@H](OC2CCN(c3ccc(-c4nc5cc(C(F)(F)F)ccc5[nH]4)cn3)CC2)CC1 reported_result=Unstable
compound_string=O=C(O)[C@H]1CC[C@H](OC2CCN(c3ccc(-c4nc5cc(C(F)(F)F)ccc5[nH]4)cn3)CC2)CC1 reported_result=Unstable

###

- Species on record: Homo sapiens
- Method notes: Selectivity index, ratio of IC50 for human ACAT1 to IC50 for human DGAT1
Readout kind: Ratio IC50

Some compounds with known Ratio IC50 results, for comparison:
compound_string=O=C(O)[C@H]1CC[C@H](OC2CCN(c3ccc(-c4nc5cc(C(F)(F)F)ccc5[nH]4)cn3)CC2)CC1 reported_result="> 2500"
compound_string=O=C(O)[C@H]1[C@@H]2C[C@@H](OC3CCN(c4ccc(-c5nc6cc(C(F)(F)F)ccc6[nH]5)cn4)CC3)C[C@@H]21 reported_result="> 2600"
compound_string=O=C(O)[C@H]1CC[C@@H](OC2CCN(c3ccc(-c4nc5cc(C(F)(F)F)ccc5[nH]4)cn3)CC2)CC1 reported_result="> 4000"

Enquiry: Entry "O=C(O)[C@@H]1[C@@H]2C[C@@H](OC3CCN(c4ccc(-c5nc6cc(C(F)(F)F)ccc6[nH]5)cn4)CC3)C[C@@H]21" has what Ratio IC50?
Return: > 1690

Enquiry: Recorded Ratio IC50 of "O=C(O)[C@@H]1[C@@H]2C[C@H](OC3CCN(c4ccc(-c5nc6cc(C(F)(F)F)ccc6[nH]5)cn4)CC3)C[C@@H]21" , please.
Return: > 900

Enquiry: # lookup: Ratio IC50 of "O=C(O)[C@H]1[C@@H]2C[C@H](OC3CCN(c4ccc(-c5nc6cc(C(F)(F)F)ccc6[nH]5)cn4)CC3)C[C@@H]21"
Return: 1950

###

- Method notes: Plasma concentration in mouse at 10 mg/kg, po after 4 hrs
- Type: ADME, organism-based
Readout kind: concentration at 4 h (nM)
Hi! Could you send only the number? It should be in nM, unit omitted.

Enquiry: What does the record list as concentration at 4 h for "O=C(O)[C@H]1[C@@H]2C[C@H](OC3CCN(c4ccc(-c5nc6cc(C(F)(F)F)ccc6[nH]5)cn4)CC3)C[C@@H]21" ?
Return: 151

###

- Method notes: Lipophilicity, log D of the compound by HPLC analysis
- Format: physicochemical
Listing: logD of selected compounds
Provide a numeric answer; units are not to be included.

compound_string=O=C(O)[C@H]1CC[C@@H](OC2CCN(c3ccc(-c4nc5cc(C(F)(F)F)ccc5[nH]4)cn3)CC2)CC1 reported_result=1.64

Enquiry: Sample "O=C(O)[C@@H]1[C@@H]2C[C@@H](OC3CCN(c4ccc(-c5nc6cc(C(F)(F)F)ccc6[nH]5)cn4)CC3)C[C@@H]21" — what was its logD?
Return: 1.73

Enquiry: Entry "O=C(O)[C@H]1CC[C@H](OC2CCN(c3ccc(-c4nc5cc(C(F)(F)F)ccc5[nH]4)cn3)CC2)CC1" has what logD?
Return: 1.68

Enquiry: # get_value(readout='logD', item= "O=C(O)[C@H]1[C@@H]2C[C@@H](OC3CCN(c4ccc(-c5nc6cc(C(F)(F)F)ccc6[nH]5)cn4)CC3)C[C@@H]21" )
Return: 1.87

Enquiry: logD for "O=C(O)[C@H]1[C@@H]2C[C@H](OC3CCN(c4ccc(-c5nc6cc(C(F)(F)F)ccc6[nH]5)cn4)CC3)C[C@@H]21" ?
Return: 1.9

Enquiry: # lookup: logD of "O=C(O)[C@@H]1[C@@H]2C[C@H](OC3CCN(c4ccc(-c5nc6cc(C(F)(F)F)ccc6[nH]5)cn4)CC3)C[C@@H]21"
Return: 1.88

###

- Method notes: Drug metabolism in mouse assessed as epimerization by measuring plasma concentration of 1s,4s)-4-(1-(5-(5-(trifluoromethyl)-1H-benzo[d]imidazol-2-yl)pyridin-2-yl)piperidin-4-yloxy)cyclohexanecarboxylic acid at 10 mg/kg, po after 3 hrs
- Assay type: ADME, organism-based
- Recorded conditions: in vivo
Readout kind: concentration (nM)
Number in nM, nothing else.

Enquiry: Can you look up the measured concentration of "O=C(O)[C@H]1CC[C@H](OC2CCN(c3ccc(-c4nc5cc(C(F)(F)F)ccc5[nH]4)cn3)CC2)CC1" for me?
Return: 54

Taken from ChEMBL document CHEMBL4316630.
